Reported IC50 values for the following compounds.
Test system: HCT116-MTAP wild-type (+/+)-cell strain
method_notes: Tumor cell proliferation inhibition assay (CellTiter-Glo), HCT116-MTAP wild-type (+/+)
Assay type: cell-based
protocol_conditions: Homo sapiens, 120 h, HCT116-MTAP wild-type (+/+) cells, 5-day treatment, IC50 score, read-out: Tumor cell 5-day relative growth inhibition (HCT116-MTAP+/+) (nM), score

In the examples that follow, each entry is paired with its recorded IC50.
Cc1n[nH]c2cccc(-n3c(=O)c4nn(C)cc4c4ccc(Cl)cc43)c12
500 to 2000 nM
O=c1c2n[nH]cc2c2cc(F)c(Cl)cc2n1-c1cccc2[nH]ncc12
< 500 nM
Cn1cnc2c(=O)n(-c3cccnc3C3CC3)c3cc(Cl)c(F)cc3c21
≥ 2000 nM
Cn1cc2c(n1)c(=O)n(-c1cccc3[nH]ncc13)c1cc(Cl)ccc21
500 to 2000 nM
Cc1c2c(nn1C(F)F)c(=O)n(-c1cccnc1)c1nc(C(F)(F)F)ccc21
500 to 2000 nM

Provide the documented IC50 with HCT116-MTAP wild-type (+/+)-cell strain as the system for Cn1cc2c(n1)c(=O)n(-c1cccnc1C(F)(F)F)c1cc(Cl)c(F)cc21 [Compound B342]
≥ 2000 nM

# query: IC50 | item `COc1ccc(-n2cc3c(n2)c(=O)n(-c2ccccc2)c2nc(C(F)(F)F)ccc32)cc1` | system: HCT116-MTAP wild-type (+/+)-cell strain
≥ 2000 nM

###

Test system: Hut-78 cell strain
method_notes: Tumor cell proliferation inhibition assay (CellTiter-Glo), Hut-78
Type: cell-based
protocol_conditions: Hut-78 cells, 5-day treatment, IC50 value, read-out: Tumor cell 5-day relative growth inhibition (Hut-78)
measured_property: IC50 (nM)

In the examples that follow, each entry is paired with its recorded IC50.
Cc1ncccc1-n1c(=O)c2nn(C)cc2c2ccc(C(F)(F)F)nc21 [Compound B179]
7990
Cc1ncccc1-n1c(=O)c2nn(C)cc2c2ccc(Cl)cc21 [Compound B233]
8.05

I: Cc1ncccc1-n1c(=O)c2nn(C)cc2c2ccc(C(F)(F)F)nc21 [Compound B76]
II: Cc1ncccc1-n1c(=O)c2nn(C)cc2c2ccc(Cl)cc21 [Compound B65]
Problem: Given the entries I and II , determine which has the lower reported IC50. Returns: label corresponding to the selected item.
I

###

Tested on: HCT116-MTAP wild-type (+/+)-cell strain
method_notes: Tumor cell proliferation inhibition assay (CellTiter-Glo), HCT116-MTAP wild-type (+/+)
Format: cell-based
protocol_conditions: Homo sapiens, 120 h, HCT116-MTAP wild-type (+/+) cells, 5-day treatment, IC50 score, read-out: Tumor cell 5-day relative growth inhibition (HCT116-MTAP+/+) (nM), score
Below, each entry is listed alongside its reported IC50.

// below: answered compounds
Cn1cc2c(n1)c(=O)n(-c1cccnc1)c1cc(Cl)ccc21
500 to 2000 nM
CNC(=O)CC1N=c2c(c3ccc(Cl)cc3n(-c3cccnc3)c2=O)=N1 (stereo not drawn)
≥ 2000 nM
Cc1ncccc1-n1c(=O)c2[nH]ncc2c2ccc(OC(F)(F)F)cc21
≥ 2000 nM
Cn1cc2c(n1)c(=O)n(-c1cccc3ccccc13)c1cc(Cl)c(F)cc21
≥ 2000 nM
CCn1nc2c(=O)n(-c3cccnc3)c3cc(Cl)ccc3c2c1F
≥ 2000 nM
O=c1c2n[nH]cc2c2ccc(C(F)(F)F)nc2n1-c1cccc2[nH]ncc12
< 500 nM
Cc1ncccc1-n1c(=O)c2nn(C)c(C)c2c2ccc(C(F)(F)F)nc21
< 500 nM
Cn1cc2c(n1)c(=O)n(-c1ccccc1Cl)c1nc(C(F)(F)F)ccc21
≥ 2000 nM

Could you now look at the following compound, please?
Entry `Cc1ncccc1-n1c(=O)c2[nH]ncc2c2ccc(C3CC3)nc21` , system HCT116-MTAP wild-type (+/+)-cell strain: what IC50 was measured?
500 to 2000 nM
